# method description: In vivo PK study in male Sprague Dawley rats
# condition summary: male, Sprague Dawley, rat, plasma; rats, 1 mg/kg IV; read-out: T1/2 Mean (converted)
assay readout: log10 of half-life (log10 of the value in h)
Use the decimal logarithm of half-life (h).

log10 of half-life for C[C@@H](CO)n1cnc2c(-c3cccc(F)c3)nc(-c3ccc(Cl)cc3)cc2c1=O [Compound 7] is 0.73

log10 of half-life for CC(C)(O)Cn1cnc2c(-c3cccnc3)nc(-c3ccc(C(F)(F)F)cn3)cc2c1=O [Compound 105] is 1.43

log10 of half-life for Cn1cc(-c2nc(-c3ccc(C(F)(F)F)nc3)cc3c(=O)n(CC(C)(C)O)cnc23)cn1 [Compound 60] is 0.75

log10 of half-life for C[C@@H](CO)n1cnc2c(-c3cccnc3)nc(-c3ccc(C(F)(F)F)cn3)cc2c1=O [Compound 46] is 0.75

log10 of half-life for C[C@H](n1cnc2c(-c3cnn(C)c3)nc(-c3ccc(Cl)cc3)cc2c1=O)C(C)(C)O [Compound 30] is 0.56

log10 of half-life for O=c1c2cc(-c3ccc(C(F)(F)F)nc3)nc(-c3cccnc3)c2ncn1[C@@H]1COC[C@H]1O [Compound 79] is 0.14

log10 of half-life for Cn1cc(-c2nc(-c3ccc(C(F)(F)F)cn3)cc3c(=O)n(CC(C)(C)O)cnc23)cn1 [Compound 103] is 1.80

* * *

# method description: In vivo PK study in male CD1 mice
# condition summary: male, CD1, mouse, plasma; mice, 1 mg/kg IV
Mark true for C0 under 400 ng/mL, false if at or over.

Prompt line: Find out if reported C0 for C[C@@H](CO)n1cnc2c(-c3cccnc3)nc(-c3ccc(C(F)(F)F)cn3)cc2c1=O [Compound 46] is less than 400 ng/mL
Response line: false

Prompt line: Find out if reported C0 for CC(C)(O)Cn1cnc2c(-c3cccnc3)nc(-c3ccc(Cl)cc3)cc2c1=O [Compound 18] is less than 400 ng/mL
Response line: true

Prompt line: Find out if reported C0 for Cn1cc(-c2nc(-c3ccc(C(F)(F)F)nc3)cc3c(=O)n(CC(C)(C)O)cnc23)cn1 [Compound 60] is less than 400 ng/mL
Response line: true

Prompt line: Find out if reported C0 for Cc1ccc(-c2cc3c(=O)n([C@@H](C)CO)cnc3c(-c3cccnc3)n2)cc1 [Compound 17] is less than 400 ng/mL
Response line: false

Prompt line: Find out if reported C0 for Cn1cc(-c2nc(-c3ccc(C(F)(F)F)cn3)cc3c(=O)n(CC(C)(C)O)cnc23)cn1 [Compound 103] is less than 400 ng/mL
Response line: true

Prompt line: Find out if reported C0 for C[C@H](n1cnc2c(-c3cnn(C)c3)nc(-c3ccc(Cl)cc3)cc2c1=O)C(C)(C)O [Compound 30] is less than 400 ng/mL
Response line: false

* * *

# method description: Caco-2 Permeability Assay
# Format: in vitro ADME
# condition summary: human, Caco-2, pH 7.4, +0.5% BSA; read-out: Caco 2 apparent permeability Papp (A−B)
assay readout: Papp A→B at 2 h, 1 μM (×10⁻⁶ cm/s)
State just the number; it will be interpreted in ×10⁻⁶ cm/s.

Papp A→B at 2 h, 1 μM for C[C@@H](CO)n1cnc2c(-c3cccnc3)nc(-c3ccc(C(F)(F)F)cn3)cc2c1=O [Compound 46] is 12.6

Papp A→B at 2 h, 1 μM for CC(C)(O)Cn1cnc2c(-c3cccnc3)nc(-c3ccc(C(F)(F)F)nc3)cc2c1=O [Compound 9] is 9.6
